- TESTED_TARGET: A2aR (Homo sapiens, UniProt P29274)
- Construct: host or cells: CHO
- Sequence (P29274 whole entry): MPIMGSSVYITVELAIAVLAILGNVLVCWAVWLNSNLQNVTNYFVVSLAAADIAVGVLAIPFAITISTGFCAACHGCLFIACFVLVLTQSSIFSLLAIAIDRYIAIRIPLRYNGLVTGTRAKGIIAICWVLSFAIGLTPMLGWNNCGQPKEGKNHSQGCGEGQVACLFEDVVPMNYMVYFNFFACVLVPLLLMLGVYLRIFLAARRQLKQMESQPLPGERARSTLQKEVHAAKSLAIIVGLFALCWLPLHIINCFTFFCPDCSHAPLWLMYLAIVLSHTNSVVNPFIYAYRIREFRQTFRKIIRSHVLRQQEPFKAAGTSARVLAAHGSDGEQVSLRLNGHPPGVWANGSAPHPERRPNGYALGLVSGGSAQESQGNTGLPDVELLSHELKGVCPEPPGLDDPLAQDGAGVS
- PROTOCOL_SUMMARY: cAMP accumulation assay (HTRF) in CHO-A2aR cells
- Format: cell-based
- ASSAY_CONDITIONS: stimulated with 10 µM NECA
READOUT_TYPE: IC50 (nM)
Record the value in nM, omitting the unit from your answer.

input: Quick one: IC50 for Cc1c(C#N)cccc1-c1cc(-c2cn(Cc3cccc(C(C)(C)O)n3)nn2)nc(N)n1 ?
output: 408

Origin of the recorded values: paper PMC9563815
